System: PC-3
ASSAY_METHOD_TEXT: Antitumor activity against human PC-3 cells after 3 days by MTT assay
Format: functional, cell-based
ASSAY_CONTEXT: PC-3, 72 h
MEASURE: pIC50
Please keep in mind that pIC50 is minus log10 of the molar concentration; only the number is needed.

Which measured pIC50 value corresponds to CC(C)[C@H]1NC(=O)C[C@@H]2NC(=O)[C@H](Cc3ccccc3)NC(=O)[C@H](Cc3ccccc3)NC(=O)[C@H](CSSCCNC2=O)NC1=O ? 6.22

---

ASSAY_METHOD_TEXT: Antitumor activity against human 253J cells after 3 days by MTT assay
Assay type: functional, cell-based
ASSAY_CONTEXT: 72 h
MEASURE: IC50 (nM)
# value in nM; strip the unit string

Which measured IC50 value corresponds to CC(C)[C@H]1NC(=O)C[C@@H]2NC(=O)[C@H](Cc3ccccc3)NC(=O)[C@H](Cc3ccccc3)NC(=O)[C@H](CSSCCNC2=O)NC1=O ? 180
